Experiment: chemical genetic growth profiling, strain panel (AID 1159580);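 note: tested at 20 µM; growth read once vehicle control cultures reached saturation at 30 °C; 1 = growth at the plate median or of vehicle wells; lower values mean less growth of the strain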
Details: S. cerevisiae deletion strains, growth OD, locus YJL095W, strain BCK1, active compounds read low
Out of some 5,500 compounds screened, about 2,000 (36%) were called active. Another 18% or so got no clear call; they are omitted. The list shows a part of the results.
Mark yes (1) for normalized growth under 0.9, no (0) if at or over.

Here are 6 compounds together with their reported answers.
Prompt: Hello, is normalized growth of the following compound strictly smaller than 0.9? C[C@H]1CC2C([C@@H](O)C[C@@]3(C)C2CC[C@]3(O)C(=O)CO)[C@@]2(C)C=CC(=O)C=C12 (stereo not given in full)
Completion: no (0)

Prompt: Hello, is normalized growth of the following compound strictly smaller than 0.9? CS(=NC(=O)c1cccc(Cl)c1)c1ccc(OC(=O)c2ccc(Cl)cc2)cc1 (stereo not given)
Completion: no (0)

Prompt: Hello, is normalized growth of the following compound strictly smaller than 0.9? COc1ccc(CN2CSC(=S)N(Cc3ccc(OC)cc3)C2)cc1
Completion: no (0)

Prompt: Hello, is normalized growth of the following compound strictly smaller than 0.9? COc1cc2c(cc1OC)C(C)N(C(=O)c1sc3ccccc3c1Cl)CC2 (stereo not given)
Completion: no (0)

Prompt: Hello, is normalized growth of the following compound strictly smaller than 0.9? O=C(CSc1nnnn1-c1ccccc1)c1ccccc1
Completion: yes (1)

Prompt: Hello, is normalized growth of the following compound strictly smaller than 0.9? CC(C)CC(NC(=O)C(Cc1ccccc1)NC(=O)CNC(=O)CNC(=O)C(N)Cc1ccc(O)cc1)C(=O)O (stereo not given)
Completion: no (0)

Further cases:
Prompt: Hello, is normalized growth of the following compound strictly smaller than 0.9? Cc1ccc(/C=C2\CSc3ccc(F)cc3C2=O)cc1
Completion: yes (1)

====

Readings of normalized growth for the listed compounds
Assay: chemical genetic growth profiling, strain panel (AID 1159580)
Conditions: S. cerevisiae deletion strains, growth OD, locus YJL095W, strain BCK1, active compounds read low
The campaign covered roughly 5,500 compounds. About 2,000 (36%) were called active. Inconclusive results (about 18%) are left out. The list shows a part of the results.
I'd appreciate a reply containing only the number, no unit.

As a guide, the following entries are already answered.
Prompt: Recorded normalized growth for Cc1ccc(-c2csc(-c3cccnc3)n2)c(C)c1 , please?
Completion: 0.772

Prompt: Recorded normalized growth for CN1CCC(=C2c3ccccc3CCc3sccc32)CC1 , please?
Completion: 1.02

Prompt: Recorded normalized growth for Cc1c(O)c(C(=O)CC(C)C)c2oc3c(C(=O)CC(C)C)c(O)c(C)c(O)c3c2c1O , please?
Completion: 0.994

Prompt: Recorded normalized growth for O=S(=O)(Nc1cccc(CCc2ccccn2)c1)c1cc(Cl)c(Cl)cc1Cl , please?
Completion: 1.02

Prompt: Recorded normalized growth for COc1cc(O)c(C(=O)/C=C/c2ccc(OC)c(O)c2)c(OC)c1 , please?
Completion: 0.941

Further cases:
Prompt: Recorded normalized growth for Cc1cc(C(=O)Nc2ccc(Cl)cc2)nn1C(C)(C)C , please?
Completion: 0.849

Prompt: Recorded normalized growth for N#CC(C#N)=C(SCc1c(Cl)cccc1Cl)SCc1c(Cl)cccc1Cl , please?
Completion: 0.969

Prompt: Recorded normalized growth for OC1(C(F)(F)F)CC(C23CC4CC(CC(C4)C2)C3)=NN1 (stereo not drawn) , please?
Completion: 0.163

Prompt: Recorded normalized growth for COc1cc(O)c(C(=O)/C=C/c2ccc(O)c(OC)c2)c(OC)c1 , please?
Completion: 0.982

Prompt: Recorded normalized growth for CN1CCC(=C2c3ccccc3CC(=O)c3sccc32)CC1 , please?
Completion: 1.02

Prompt: Recorded normalized growth for COc1cc2c(cc1OC)C1C(=O)c3ccc4c(c3OC1CO2)CCC(C)(C)O4 (stereo not drawn) , please?
Completion: 1.01

====

Assay: chemical genetic growth profiling, strain panel (AID 1159580)
Conditions: S. cerevisiae deletion strains, growth OD, locus YOR119C, strain RIO1, active compounds read low
Hit rate of the full screen: of about 5,500 compounds, about 2,000 (36%) were called active. About 18% were inconclusive and are not listed. The list shows a part of the results.
Mark yes (1) for normalized growth under 0.9, no (0) if at or over.

Prompt: Hello, is normalized growth of the following compound strictly smaller than 0.9? O=S(=O)(Nc1cccc2nsnc12)c1cc(Cl)sc1Cl
Completion: no (0)

Further cases:
Prompt: Hello, is normalized growth of the following compound strictly smaller than 0.9? Cc1cc(C(=O)NNc2ccc(F)cc2F)no1
Completion: no (0)

Prompt: Hello, is normalized growth of the following compound strictly smaller than 0.9? O=C(CSc1nnnn1-c1ccccc1)c1ccccc1
Completion: yes (1)

====

Assay: chemical genetic growth profiling, strain panel (AID 1159580);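 note: tested at 20 µM; growth read once vehicle control cultures reached saturation at 30 °C; 1 = growth at the plate median or of vehicle wells; lower values mean less growth of the strain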
Conditions: S. cerevisiae deletion strains, growth OD, locus YBR135W, strain CKS1, active compounds read low
Among all 5,500 compounds or so, about 2,000 (36%) were called active. About 18% were inconclusive and are not listed. Some of the results follow.
Readings of normalized growth for the listed molecules

As a guide, the following entries are already answered.
Prompt: Recorded normalized growth for S=C(Nc1ccc(Cl)cc1Cl)N(c1cccc(Cl)c1)c1nc2ccccc2s1 , please?
Completion: 0.951 (inactive)

Prompt: Recorded normalized growth for CC(C)(C)CN/C(C#N)=C(/C#N)NCc1cccc(Cl)c1 , please?
Completion: 0.98 (inactive)

Prompt: Recorded normalized growth for O=S(=O)(Nc1cccc(CCc2ccccn2)c1)c1cc(Cl)c(Cl)cc1Cl , please?
Completion: 0.985 (inactive)

Prompt: Recorded normalized growth for O=C(N/C=C/c1ccsc1)Nc1cc(C(F)(F)F)cc(C(F)(F)F)c1 , please?
Completion: 0.974 (inactive)

Further cases:
Prompt: Recorded normalized growth for CC(=O)CSc1nnc(-c2ccc(C(C)(C)C)cc2)n1-c1ccc(Cl)cc1 , please?
Completion: 0.973 (inactive)

Prompt: Recorded normalized growth for Cc1nn(Cc2cccc(C(=O)Nc3ccc(Cl)cc3)c2)c(C)c1Br , please?
Completion: 0.986 (inactive)

Prompt: Recorded normalized growth for CS(=NC(=O)c1cccc(Cl)c1)c1ccc(OC(=O)c2ccc(Cl)cc2)cc1 (stereo unspecified) , please?
Completion: 0.97 (inactive)

Prompt: Recorded normalized growth for COc1ccc(/C=C2\CSc3ccc(F)cc3C2=O)cc1 , please?
Completion: 0.951 (inactive)

Prompt: Recorded normalized growth for O=S(=O)(Nc1cccc2nsnc12)c1cc(Cl)sc1Cl , please?
Completion: 0.957 (inactive)

Prompt: Recorded normalized growth for Cc1cc(C(=O)Nc2ccc(Cl)cc2)nn1C(C)(C)C , please?
Completion: 0.995 (inactive)

Prompt: Recorded normalized growth for COc1cc2c(cc1OC)C(C)N(C(=O)c1sc3ccccc3c1Cl)CC2 (stereo unspecified) , please?
Completion: 0.97 (inactive)

====

Experiment: chemical genetic growth profiling, strain panel (AID 1159580);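 note: tested at 20 µM; growth read once vehicle control cultures reached saturation at 30 °C; 1 = growth at the plate median or of vehicle wells; lower values mean less growth of the strain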
Conditions: S. cerevisiae deletion strains, growth OD, locus YER155C, strain BEM2, active compounds read low
Screen size: about 5,500 compounds; about 2,000 (36%) were called active. About 18% were inconclusive and are not listed. This is one part of the list.
READOUT: normalized growth
I'd appreciate a reply containing only the number, no unit.

As a guide, the following entries are already answered.
Prompt: Recorded normalized growth for COc1ccc2cc([C@H](C)CO)ccc2c1 , please?
Completion: 1.01

Prompt: Recorded normalized growth for CC(C)(OC(=O)c1ccccc1)[C@@H]1Cc2cc3ccc(=O)oc3cc2O1 , please?
Completion: 0.999

Prompt: Recorded normalized growth for CC(C(=O)O)c1cccc(C(=O)c2ccccc2)c1 (stereo unspecified) , please?
Completion: 0.994

Prompt: Recorded normalized growth for CC(C(=O)O)c1ccc(-c2ccccc2)c(F)c1 (stereo unspecified) , please?
Completion: 0.93

Prompt: Recorded normalized growth for CCN(CC)CCCC(C)Nc1c2ccc(Cl)cc2nc2ccc(OC)cc12 (stereo unspecified) , please?
Completion: 0.997

Would you kindly look at the next entry?
Prompt: Recorded normalized growth for CC(=O)OC(C)(C)[C@@H]1Cc2cc3ccc(=O)oc3cc2O1 , please?
Completion: 0.999

====

Readings of normalized growth for the listed compounds
Assay: chemical genetic growth profiling, strain panel (AID 1159580);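 note: tested at 20 µM; growth read once vehicle control cultures reached saturation at 30 °C; 1 = growth at the plate median or of vehicle wells; lower values mean less growth of the strain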
Conditions: S. cerevisiae deletion strains, growth OD, locus YOR184W, strain ser1, active compounds read low
In all, about 5,500 compounds went through this assay and about 2,000 (36%) were called active. Roughly 18% stayed inconclusive and do not appear here. The list shows a part of the results.
I'd appreciate a reply containing only the number, no unit.

As a guide, the following entries are already answered.
Prompt: Recorded normalized growth for O=C(O)C1(O)C[C@@H](O)C(O)[C@H](O)C1 (stereo partly specified) , please?
Completion: 1.01

Prompt: Recorded normalized growth for C[C@]12CCC(=O)C=C1CCC1C2CC[C@@]2(C)C1CC[C@@H]2O (stereo partly specified) , please?
Completion: 0.98

Prompt: Recorded normalized growth for CC(CCc1ccccc1)NC(C)C(O)c1ccc(O)cc1 (stereo unspecified) , please?
Completion: 0.99

Prompt: Recorded normalized growth for C[C@H]1OC(n2cc(F)c(=O)[nH]c2=O)C(O)[C@@H]1O (stereo partly specified) , please?
Completion: 0.921

Further cases:
Prompt: Recorded normalized growth for CC(=O)OCC(=O)[C@H]1CCC2C3CCC4=CC(=O)CC[C@]4(C)C3CC[C@@]21C (stereo partly specified) , please?
Completion: 0.759

Prompt: Recorded normalized growth for NC(=O)c1ccc[n+]([C@@H]2O[C@H](COP(=O)([O-])OP(=O)(O)OC[C@H]3O[C@@H](n4cnc5c(N)ncnc54)[C@H](O)[C@@H]3O)[C@@H](O)[C@H]2O)c1 , please?
Completion: 1
